Test system: D93 binding to human denatured-collagen IV
assay-remarks: Competition ELISA: synthetic peptides blocking D93 binding to heat denatured collagen IV
test-conditions: peptide inhibitor concentration 1 μM; average of two studies; vs 1% BSA/PBS alone
Square brackets hold non-standard residues; d marks the D form. Ends that are not written are not given here. Hyp = O=C(O)[C@@H]1C[C@@H](O)CN1
Class 1.0: % INHIBITION OF BINDING OF D93 TO HUMAN DENATURED-COLLAGEN IV at least 10%. Class 0.0: % INHIBITION OF BINDING OF D93 TO HUMAN DENATURED-COLLAGEN IV below 10%.

The examples below pair each entry with its known result.
* LPGSPG (L[Hyp]GS[Hyp]G) [SEQ ID NO: 26] | 0.0
* LPGLPG (L[Hyp]GL[Hyp]G) [SEQ ID NO: 25] | 0.0
* GPPGPPGP (GPXGPXGP; MOD_RES (3) Hydroxyproline; MOD_RES (6) Hydroxyproline) [SEQ ID NO: 31] | 0.0

Prompt line: Is the recorded value of % INHIBITION OF BINDING OF D93 TO HUMAN DENATURED-COLLAGEN IV equal to or greater than 10% for this substance? F-Hyp-G-P-Hyp-G-P-D-G-L-P-G-S-M-G-P-Hyp-G (F[Hyp]GP[Hyp]GPDGLPGSMGP[Hyp]G) [SEQ ID NO: 36]
Response line: 1.0

Prompt line: Is the recorded value of % INHIBITION OF BINDING OF D93 TO HUMAN DENATURED-COLLAGEN IV equal to or greater than 10% for this substance? PGAKGLPGP ([Hyp]GAKGLPGP) [SEQ ID NO: 17]
Response line: 1.0

Prompt line: Is the recorded value of % INHIBITION OF BINDING OF D93 TO HUMAN DENATURED-COLLAGEN IV equal to or greater than 10% for this substance? LPGTPG (L[Hyp]GT[Hyp]G) [SEQ ID NO: 27]
Response line: 0.0

Prompt line: Is the recorded value of % INHIBITION OF BINDING OF D93 TO HUMAN DENATURED-COLLAGEN IV equal to or greater than 10% for this substance? CTWPRHHTTDALL [SEQ ID NO: 39, reference compound]
Response line: 0.0

Prompt line: Is the recorded value of % INHIBITION OF BINDING OF D93 TO HUMAN DENATURED-COLLAGEN IV equal to or greater than 10% for this substance? LPGFPGC [SEQ ID NO: 37, reference compound]
Response line: 0.0

Prompt line: Is the recorded value of % INHIBITION OF BINDING OF D93 TO HUMAN DENATURED-COLLAGEN IV equal to or greater than 10% for this substance? LPGPPGPPGP (LPGP[Hyp]GP[Hyp]GP) [SEQ ID NO: 20]
Response line: 1.0

Prompt line: Is the recorded value of % INHIBITION OF BINDING OF D93 TO HUMAN DENATURED-COLLAGEN IV equal to or greater than 10% for this substance? PGPPGPPGPY (PGP[Hyp]GP[Hyp]GPY) [SEQ ID NO: 28]
Response line: 1.0

Prompt line: Is the recorded value of % INHIBITION OF BINDING OF D93 TO HUMAN DENATURED-COLLAGEN IV equal to or greater than 10% for this substance? PGPPGPPGP (PGP[Hyp]GP[Hyp]GP) [SEQ ID NO: 29]
Response line: 1.0
